# Tested on: CCRF-CEM leukemia
# Assay Remarks: NCI tumour cell line growth inhibition, 48 h
The compounds listed here are annotated with their TGI.

NC1=NC2(COC(c3ccccc3)(c3ccccc3)c3ccccc3)OC(COC(c3ccccc3)(c3ccccc3)c3ccccc3)C(O)C2O1 (centres undefined) : > 100 µM
ClCCOCCn1cnc2c(Cl)nc(Cl)nc21 : > 100 µM
CCOc1cnc(C(O)(c2ccccc2)c2ccccc2)o1 : > 100 µM
C#Cc1ccc(-n2c(/C=C/c3ccc(O)cc3)nc3ncccc3c2=O)cc1 : > 100 µM

Kindly note the recorded TGI for NNc1nnc(CCCCCCCCc2nnc(NN)n2N)n1N , which is > 100 µM

Kindly note the recorded TGI for COC(=O)C(C(=O)C(=O)Nc1c(Cl)cc([N+](=O)[O-])cc1Cl)c1csc(-n2nc(C3=CCCCC3)cc2-c2ccccc2)n1 (centres undefined) , which is > 100 µM

Kindly note the recorded TGI for C=C(C#N)C(=O)OCC(CC)CC.C=C(C#N)C(=O)OCC(CC)CC.CS(C)=O.CS(C)=O.Nc1c(N=Nc2ccc(-c3ccc(N=Nc4cc(S(=O)(=O)[O-])c5ccccc5c4N)cc3)cc2)cc(S(=O)(=O)[O-])c2ccccc12.[Pt+2] , which is > 100 µM

Kindly note the recorded TGI for c1cc(-c2ccc(-c3ccsc3)s2)cs1 , which is 44.4 µM

Kindly note the recorded TGI for CCCCS(=O)c1sc2nc(-c3cccs3)cc(-c3ccccc3)c2c1N (centres undefined) , which is > 84.8 µM

====

# Test system: SNB-75 CNS
# Assay Remarks: NCI tumour cell line growth inhibition, 48 h; in the data active = GI50 below about 0.43 µM; inactive = the rest
In this exercise, the only acceptable responses are Yes (active), No (inactive)

These solved cases illustrate the format of a correct answer.
CCCCCCCCCCCCCCNC(=O)Nc1ccc(Cl)c(Cl)c1 : No
O=C(COc1ccc(/C=C2\Oc3ccccc3C2=O)cc1)Nc1nc2ccccc2s1 : No
CC(C)[C@@H]1CC[C@]2(CO2)[C@@H]2C(=O)OCC(C(=O)O)=C[C@H]21 : Yes
C=C(CN1CCc2[nH]c3ccc(F)cc3c2C1)c1ccc(C(=O)Nc2ccccc2N)cc1 : No
Nc1nc(=S)c2ncn(C3OC(COP(=O)(O)O)C(O)C3O)c2[nH]1 (configuration not stated) : No
CCCCCC(=O)O[C@]1(C(C)=O)CCC2C3CCC4=CC(=O)CC[C@]4(C)C3CC[C@@]21C (some centres not stated) : No

I'd appreciate the recorded outcome for Cc1cccc(Cn2cc(CO)c3cnccc32)c1 from this test.
No

I'd appreciate the recorded outcome for COc1ccc(-c2nc3ccc(Cc4ccc5nc(-c6ccc(OC)cc6)[nH]c5c4)cc3[nH]2)cc1 from this test.
Yes

====

# Test system: HS 578T breast
# Assay Remarks: NCI tumour cell line growth inhibition, 48 h
Assay Endpoint: TGI

See these solved cases before continuing.
NC(N)=NCCCC(NCc1c2ccccc2nc2ccccc12)C(=O)O (configuration not stated) : > 100 µM
Cc1cc(Br)c(NC(=O)c2c(-c3c(Cl)cccc3Cl)noc2C)c(Br)c1 : > 100 µM
O=S(=O)(/N=C(\NO)Nc1ccc(Cl)cc1)c1cc(C(F)(F)F)cc(C(F)(F)F)c1 : 60.5 µM
[B]C(=O)NC(CC(C)C)C(=O)NCC(=O)NC1c2ccsc2C(=O)C1O (configuration not stated) (tested in a mixture with another compound) : > 100 µM
CCN(CC)c1ccc2nc3ccc(=[N+](CC)CC)cc-3oc2c1 : 5.94 µM

Kindly note the recorded TGI for CCCCCCCCCCCCCCNC(=O)Nc1ccc(Cl)c(Cl)c1 , which is 15 µM

Kindly note the recorded TGI for N#CC(C#N)=C/C=C(\Sc1ccc(Cl)cc1)c1ccc(F)cc1 , which is 22.8 µM

====

# System: SK-OV-3 ovarian
# Assay Remarks: NCI tumour cell line growth inhibition, 48 h; in the data active = GI50 below about 0.43 µM; inactive = the rest
In this exercise, the only acceptable responses are YES for active, NO for inactive

These solved cases illustrate the format of a correct answer.
OCCCCC#Cc1ccccc1C#Cc1cccc(C(F)(F)F)c1 : NO
COc1ccc(-c2nc3ccc(Cc4ccc5nc(-c6ccc(OC)cc6)[nH]c5c4)cc3[nH]2)cc1 : YES
COc1ccc(-c2[nH]c3ccc(OC)cc3c2C=C(C#N)C#N)cc1 : NO

I'd appreciate the recorded outcome for Cc1ccc(NC(=O)c2cc(S(=O)(=O)Nc3nnc(-c4ccccc4)c(-c4ccccc4)n3)c(SCc3ccccc3)cc2Cl)cc1 from this test.
NO

I'd appreciate the recorded outcome for O=C(c1cccs1)c1c(C(F)(F)F)n([O-])c2cc(Cl)c(Cl)cc2[n+]1=O from this test.
NO

I'd appreciate the recorded outcome for COc1ccc(Nc2cnc3cc(N)cc(N)c3n2)cc1 from this test.
NO

I'd appreciate the recorded outcome for COc1cc(-c2nccc3[nH]c(-c4ccc5cc[nH]c5c4)nc23)cc(OC)c1OC from this test.
YES

I'd appreciate the recorded outcome for COc1ccccc1CNCCN1C(=O)c2ccc3c4c(ccc(c24)C1=O)C(=O)N(CCNCc1ccccc1OC)C3=O from this test.
NO

I'd appreciate the recorded outcome for O=C1c2cc3c(cc2-c2c1c1ccc(Cl)cc1c(=O)n2C[C@H](O)CO)OCO3 from this test.
YES

I'd appreciate the recorded outcome for CCc1ccc(Nc2cc(C)c3ccc(O)cc3n2)cc1 from this test.
NO

I'd appreciate the recorded outcome for S=C1SCN(Cc2ccccc2)CN1Cc1ccco1 from this test.
NO

I'd appreciate the recorded outcome for ClCCOCCn1cnc2c(Cl)nc(Cl)nc21 from this test.
NO

I'd appreciate the recorded outcome for Nc1nccc(-c2c(-c3ccc(F)cc3)nn3cc(C(F)(F)F)ccc23)n1 from this test.
NO

====

The compounds listed here are annotated with their TGI.
# Test system: NCI-H226 lung
# Assay Remarks: NCI tumour cell line growth inhibition, 48 h
// return numeric value only (unit: µM, not printed)

See these solved cases before continuing.
N#Cc1c(NC(=O)C(F)(F)F)sc2c3c(=O)c4ccccc4c(=O)c=3oc3ccccc3c12 : 21.2
CN(C)c1ccc(-c2cc(-c3ccc(Nc4nc(Nc5ccc(Cl)cc5)nc(Nc5ccc(Cl)cc5)n4)cc3)nc(N)c2C#N)cc1 : 24.4
COc1ccc2c(C(=O)O)cc3ccccc3c2c1OC : 71.9
CC(C)C(Cl)CCC(C)(Cl)C(=O)CBr (stereo unspecified) : 44.5
CC1NOC(=O)C1N=Nc1ccc(Cl)cc1Cl (stereo unspecified) : 63.4

Kindly note the recorded TGI for CCOC(=O)C1(C/C=C\CBr)CCCC1=O (stereo unspecified) , which is 88.6

Kindly note the recorded TGI for ClCCOCCn1cnc2c(Cl)nc(Cl)nc21 , which is 33.8

Kindly note the recorded TGI for Cc1c(C)c(S(=O)(=O)N(CCCCN)OCCCN)c(C)c2c1OC(C)(C)CC2 , which is 30.1

Kindly note the recorded TGI for O=C(c1ccccc1)[C@H]1Nc2ccc(Cl)cc2[C@H]2CCC[C@@H]12 , which is 63.3

Kindly note the recorded TGI for O=C1c2cc3c(cc2-c2c1c1ccc(Cl)cc1c(=O)n2C[C@H](O)CO)OCO3 , which is 0.165

Kindly note the recorded TGI for O=C(O)CCCc1ccc2c(c1)CC1(C2)Cc2cc3c(cc2C1)CCCC3 , which is 61.8

Kindly note the recorded TGI for O=C(NCCN(CCNC(=O)c1cccc(O)c1O)CCNC(=O)c1cccc(O)c1O)c1cccc(O)c1O , which is 85.6

====

The molecules listed here are annotated with their TGI.
# Tested on: SR leukemia
# Assay Remarks: NCI tumour cell line growth inhibition, 48 h

See these solved cases before continuing.
CCCCCCCCCCCCCCNC(=O)Nc1ccc(Cl)c(Cl)c1 : > 23.6 µM
CCOC(=O)C1(C)CCC(C(C(=O)O)C(=O)O)CC1=O (configuration not stated) : > 100 µM
COc1ccc(-c2cc(/C=C/C(=O)c3ccc(N)cc3)[nH]n2)cc1OC : 5.31 µM
O=C(NCCN(CCNC(=O)c1cccc(O)c1O)CCNC(=O)c1cccc(O)c1O)c1cccc(O)c1O : > 34.2 µM

Kindly note the recorded TGI for CCN1CCC(O)(c2ccc([N+](=O)[O-])cc2)C(C(=O)c2ccc([N+](=O)[O-])cc2)C1 (configuration not stated) , which is > 100 µM

Kindly note the recorded TGI for Cc1ccc(S[C@@](C=O)(NC(=O)OCc2ccccc2)C(F)(F)F)cc1 , which is 44.4 µM

Kindly note the recorded TGI for CC1NOC(=O)C1N=Nc1ccc(Cl)cc1Cl (configuration not stated) , which is 71.9 µM

Kindly note the recorded TGI for COc1ccc2c(C(=O)O)cc3ccccc3c2c1OC , which is > 100 µM

Kindly note the recorded TGI for O=C(NCCC1CNc2ccccc21)OCc1ccccc1 (configuration not stated) , which is > 100 µM

====

# System: HOP-62 NSCLC
# Assay Remarks: NCI tumour cell line growth inhibition, 48 h
The compounds listed here are annotated with their TGI.

See these solved cases before continuing.
Cc1c(C)c2c(c(N)c1C#N)C(=O)N(Cc1ccc(S(N)(=O)=O)cc1)C2=O : 19.3 µM
CSCCC(C(=O)O)N(C)C (configuration not stated) : > 100 µM
O=C1C(Cl)N(c2ccccc2Cl)C1c1c[nH]c2ccccc12 (configuration not stated) : > 100 µM
Oc1c(N2CCCCC2)cc(-c2cc(N3CCCCC3)c(O)c3ccccc23)c2ccccc12 : > 100 µM
Cc1ccccc1C(CCCO)C(=O)O (configuration not stated) : > 100 µM
COCCN(Cc1ccc(F)cc1)c1ccc(CO)c(Cl)c1 : > 100 µM
CSc1nncc(-c2cc3c(c(SC)n2)CCCC3)n1 : > 100 µM
O=C(c1ccc(Cl)cc1)C1OC12C(=O)Nc1c(Cl)cc(Cl)cc12 (configuration not stated) : > 100 µM

Kindly note the recorded TGI for C[C@H](C(=O)O)C(=O)NC(=O)N(Cc1ccccc1)N=O , which is > 100 µM

Kindly note the recorded TGI for Cc1cc2nc3c(C#N)c(-c4ccccc4)/c(=C\Nc4ccc(F)cc4)c(=O)n3c2cc1C , which is > 100 µM

Kindly note the recorded TGI for COc1ccc(-c2[nH]c3ccc(OC)cc3c2C=C(C#N)C#N)cc1 , which is > 100 µM

Kindly note the recorded TGI for C1CSCCSCCCS[C@@H]2CCCCC2SC1 (some centres not stated) , which is > 100 µM

Kindly note the recorded TGI for Cc1ccc(S[C@@](C=O)(NC(=O)OCc2ccccc2)C(F)(F)F)cc1 , which is 88.3 µM

Kindly note the recorded TGI for N#CC1CC(c2ccccc2)Nc2cc(Cl)ccc2N1 (configuration not stated) , which is > 100 µM

Kindly note the recorded TGI for Nc1nc(=S)c2ncn(C3OC(COP(=O)(O)O)C(O)C3O)c2[nH]1 (configuration not stated) , which is 12.7 µM

Kindly note the recorded TGI for CCCCCCCCCCCC[C@@H](O)[C@H]1CC[C@H]([C@H](O)CC[C@H](O)[C@@H]2CC[C@@H](CCCCCCCC3=C[C@H](C)OC3=O)O2)O1 , which is > 50 µM

Kindly note the recorded TGI for O=C1c2cc(O)c(O)cc2O[C@H](c2ccc(O)c(O)c2)[C@H]1O , which is > 100 µM

Kindly note the recorded TGI for CCN(CC)CCNc1ccc2ncn3c4ccc(O)cc4c(=O)c1c23 , which is 11.6 µM

Kindly note the recorded TGI for CC(C)(CN1CCCCC1)C(=O)/C=C/c1ccc(Br)cc1 , which is 9.82 µM

Kindly note the recorded TGI for CCCCCCCCCCCCCCNC(=O)Nc1ccc(Cl)c(Cl)c1 , which is > 23.1 µM

Kindly note the recorded TGI for COc1cc2nc(Cl)nc(NS(=O)(=O)c3cc4ccccc4s3)c2cc1OC , which is > 100 µM

Kindly note the recorded TGI for COc1ccc(-c2nc3ccc(Cc4ccc5nc(-c6ccc(OC)cc6)[nH]c5c4)cc3[nH]2)cc1 , which is 2.07 µM
